Molecular target: Phosphatidylinositol 3,4,5-trisphosphate 5-phosphatase 2 (Homo sapiens, UniProt O15357)
Sequence (O15357 whole entry): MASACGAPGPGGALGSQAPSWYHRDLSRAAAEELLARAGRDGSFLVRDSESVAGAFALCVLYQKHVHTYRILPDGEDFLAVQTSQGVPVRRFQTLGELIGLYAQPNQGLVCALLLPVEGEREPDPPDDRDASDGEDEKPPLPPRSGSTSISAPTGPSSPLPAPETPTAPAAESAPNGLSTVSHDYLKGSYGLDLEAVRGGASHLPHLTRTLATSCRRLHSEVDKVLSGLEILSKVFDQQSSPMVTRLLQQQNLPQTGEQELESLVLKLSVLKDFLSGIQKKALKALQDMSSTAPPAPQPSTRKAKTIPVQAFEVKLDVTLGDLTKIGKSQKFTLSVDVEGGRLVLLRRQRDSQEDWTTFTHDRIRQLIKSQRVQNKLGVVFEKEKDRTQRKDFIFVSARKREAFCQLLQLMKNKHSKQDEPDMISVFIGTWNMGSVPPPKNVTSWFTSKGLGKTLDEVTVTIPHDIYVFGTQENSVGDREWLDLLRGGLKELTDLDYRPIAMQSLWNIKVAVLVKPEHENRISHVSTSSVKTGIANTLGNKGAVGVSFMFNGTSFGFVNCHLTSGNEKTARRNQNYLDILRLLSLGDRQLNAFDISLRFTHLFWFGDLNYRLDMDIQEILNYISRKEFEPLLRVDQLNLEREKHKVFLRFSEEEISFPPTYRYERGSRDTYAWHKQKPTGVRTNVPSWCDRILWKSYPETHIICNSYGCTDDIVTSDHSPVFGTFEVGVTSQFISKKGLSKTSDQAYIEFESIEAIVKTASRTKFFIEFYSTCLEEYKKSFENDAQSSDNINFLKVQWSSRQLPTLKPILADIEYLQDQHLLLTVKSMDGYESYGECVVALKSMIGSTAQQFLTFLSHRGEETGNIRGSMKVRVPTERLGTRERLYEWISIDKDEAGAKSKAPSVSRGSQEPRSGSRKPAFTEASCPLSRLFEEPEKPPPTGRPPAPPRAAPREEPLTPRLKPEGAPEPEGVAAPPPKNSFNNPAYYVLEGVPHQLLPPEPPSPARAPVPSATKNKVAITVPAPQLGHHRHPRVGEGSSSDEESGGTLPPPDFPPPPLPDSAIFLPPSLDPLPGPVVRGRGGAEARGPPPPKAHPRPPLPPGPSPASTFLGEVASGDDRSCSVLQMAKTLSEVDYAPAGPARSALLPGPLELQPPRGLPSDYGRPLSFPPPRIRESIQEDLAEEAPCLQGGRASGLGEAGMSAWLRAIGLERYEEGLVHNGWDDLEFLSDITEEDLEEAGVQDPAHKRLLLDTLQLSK
Assay: Displacement of Ins(1,3,4,5)P4 from recombinant human N-terminal His-tagged SHIP2 (419 to 832 residues) expressed in Escherichia coli BL21 (DE3)
observable: IC50

Which IC50 is listed for O=P(O)(O)Oc1cccc(OP(=O)(O)O)c1OP(=O)(O)O ?
> 1000 µM
